target: human IL12Rβ1, cell-expressed (human, UniProt P42701 24-662); test: cell-based or functional assay
metric: IC50, IFNγ release, T cells D839 (nM)
Write it as a number; the unit nM goes unstated.

Inquiry: Param item = CD4#8-35GS-IL12Rb1#30 (bispecific antibody, also called BI#40; T023200040) EVQLVESGGGSVQPGGSLTLSCGTSGRTFNVMGWFRQAPGKEREFVAAVRWSSTGIYYTQYADSVKSRFTISRDNAKNTVYLEMNSLKPEDTAVYYCAADTYNSNPARWDGYDFRGQGTLVTVSSGGGGSGGGGSGGGGSGGGGSGGGGSGGGGSGGGGSEVQLVESGGGLVQTGGSLRLSCAASGRTPRLVAMGWFRQTPGKEREFVGEIILSKGFTYYADSVKGRFTISRVNAKNTITMYLQMNSLKSEDTAVYYCAGRQNWSGSPARTNEYEYWGQGTLVTVSS ; retrieve measured IC50, IFNγ release, T cells D839.
Reply text: 0.28
